# TARGET_OF_ASSAY: Cdc7 (BEV coexpressed huCDC7/DBF4) (Homo sapiens)
# Construct: made in house; host or cells: BEV (baculovirus expression vector) co-expression; insect cells are implied but no cell line is named
# Sequence (O00311 whole entry): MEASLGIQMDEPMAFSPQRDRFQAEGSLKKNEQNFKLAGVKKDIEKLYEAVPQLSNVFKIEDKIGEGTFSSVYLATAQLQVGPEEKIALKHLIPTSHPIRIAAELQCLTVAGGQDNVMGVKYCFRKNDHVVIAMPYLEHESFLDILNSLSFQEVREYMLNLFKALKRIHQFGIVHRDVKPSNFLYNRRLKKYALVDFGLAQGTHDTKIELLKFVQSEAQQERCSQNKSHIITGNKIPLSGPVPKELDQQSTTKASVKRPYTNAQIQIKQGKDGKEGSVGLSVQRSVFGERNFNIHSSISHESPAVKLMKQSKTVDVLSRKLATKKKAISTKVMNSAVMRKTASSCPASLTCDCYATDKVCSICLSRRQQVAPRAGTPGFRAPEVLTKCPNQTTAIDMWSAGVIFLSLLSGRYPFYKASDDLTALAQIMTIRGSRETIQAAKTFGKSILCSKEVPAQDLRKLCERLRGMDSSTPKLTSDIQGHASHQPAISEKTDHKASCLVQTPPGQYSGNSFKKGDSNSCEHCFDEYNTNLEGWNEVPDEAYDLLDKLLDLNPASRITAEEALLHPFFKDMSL
# Sequence (Q9UBU7 whole entry partner): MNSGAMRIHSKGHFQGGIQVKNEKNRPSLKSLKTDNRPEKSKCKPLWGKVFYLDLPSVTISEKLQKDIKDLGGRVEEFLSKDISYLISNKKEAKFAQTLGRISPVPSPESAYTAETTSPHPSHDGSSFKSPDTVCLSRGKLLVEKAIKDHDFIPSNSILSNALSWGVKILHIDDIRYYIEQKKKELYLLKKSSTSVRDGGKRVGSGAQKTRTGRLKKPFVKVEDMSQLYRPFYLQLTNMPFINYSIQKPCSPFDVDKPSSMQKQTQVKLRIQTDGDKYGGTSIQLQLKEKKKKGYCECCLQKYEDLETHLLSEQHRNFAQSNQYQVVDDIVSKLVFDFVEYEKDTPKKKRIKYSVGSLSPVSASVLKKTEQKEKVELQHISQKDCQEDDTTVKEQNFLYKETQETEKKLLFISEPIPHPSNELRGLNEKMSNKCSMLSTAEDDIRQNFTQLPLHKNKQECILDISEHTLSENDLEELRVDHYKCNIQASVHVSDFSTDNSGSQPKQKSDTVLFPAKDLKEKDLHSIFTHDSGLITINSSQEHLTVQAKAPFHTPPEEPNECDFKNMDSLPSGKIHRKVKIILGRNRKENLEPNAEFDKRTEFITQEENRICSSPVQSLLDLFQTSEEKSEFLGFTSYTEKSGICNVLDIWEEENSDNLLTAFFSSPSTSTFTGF
# PROTOCOL_TEXT: Cdc7 enzyme inhibition assay ([33P]ATP, biotinylated peptide substrate, FlashPlate)
# Format: biochemical
# Protocol: Cdc7 (BEV coexpressed huCDC7/DBF4) is prepared internally. Cdc7 assays are conducted as follows with final concentrations as listed. […] Reactions are quenched after 1 hr by the addition of 90 μL stop buffer (50 mM EDTA, 2M NaCl). […] (Ki) for exemplary compounds.
pKi: −log10 of the molar value.
METRIC: pKi

> print(dat)
                                   compound                           target.of.assay    test.value
1  CC(C)(CO)CNc1cc(-c2c[nH]c3ncccc23)cc(Cl)n1 [Example 40]  Cdc7 (BEV coexpressed huCDC7/DBF4) (Homo sapiens)  7.00 to 8.00
2  Fc1cc(Cl)ccc1CNc1cc(-c2c[nH]c3ncccc23)cc(Cl)n1 [Example 36]  Cdc7 (BEV coexpressed huCDC7/DBF4) (Homo sapiens)  7.00 to 8.00
3  COCCNc1cc(-c2c[nH]c3ncccc23)cc(Cl)n1 [Example 10]  Cdc7 (BEV coexpressed huCDC7/DBF4) (Homo sapiens)        > 8.00
4  CC(=O)NC1CCCC(Nc2cc(-c3c[nH]c4ncccc34)cc(Cl)n2)C1 (stereo not drawn) [Example 35]  Cdc7 (BEV coexpressed huCDC7/DBF4) (Homo sapiens)  7.00 to 8.00
5  C=CCNc1cc(-c2c[nH]c3ncccc23)cc(Cl)n1 [Example 3]  Cdc7 (BEV coexpressed huCDC7/DBF4) (Homo sapiens)        > 8.00
6  CS(=O)(=O)NC1CCCC(Nc2cc(-c3c[nH]c4ncccc34)cc(Cl)n2)C1 (stereo not drawn) [Example 24]  Cdc7 (BEV coexpressed huCDC7/DBF4) (Homo sapiens)        > 8.00
7  Clc1cc(-c2c[nH]c3ncccc23)cc(NCc2ccccc2)n1 [Example 2]  Cdc7 (BEV coexpressed huCDC7/DBF4) (Homo sapiens)        > 8.00
8  OCCOCCNc1cc(-c2c[nH]c3ncccc23)cc(Cl)n1 [Example 41]  Cdc7 (BEV coexpressed huCDC7/DBF4) (Homo sapiens)  7.00 to 8.00
9  COCCN(CCOC)c1cc(-c2c[nH]c3ncccc23)cc(Cl)n1 [Example 12]  Cdc7 (BEV coexpressed huCDC7/DBF4) (Homo sapiens)  7.00 to 8.00
